Data provenance: patent US10167299B2

assay: in vivo; conditions: male, rat, po, 20 mg/kg

MOLECULE | Tmax
Cc1nnc(C(C)C)n1C1CC2CCC(C1)N2CC[C@H](NC(=O)C1CCC(F)(F)CC1)c1cccs1 (some centres unmarked) | 4 h
Cc1nnc(C(C)C)n1C1CC2CCC(C1)N2CC[C@H](NC(=O)C1CCC(F)(F)CC1)c1ccsc1 (some centres unmarked) | 2 h
Cc1nnc(C(C)C)n1C1CC2CCC(C1)N2CC[C@H](NC(=O)C1CCCCC1)c1cccs1 (some centres unmarked) | 0.25 h
Cc1ccc([C@H](CCN2C3CCC2CC(n2c(C)nnc2C(C)C)C3)NC(=O)C2CCC(F)(F)CC2)s1 (some centres unmarked) | 2 h
Cc1nnc(C(C)C)n1C1CC2CCC(C1)N2CC[C@H](NC(=O)C1CCCC1)c1cccs1 (some centres unmarked) | 2 h
